measurement_type: melting point (°C)

compound: CC(C)(C)OC(=O)[C@@H]1N(S(=O)(=O)c2ccc(O)cc2)CCSC1(C)C
melting point / °C: 171

compound: Oc1ccccc1Cc1ccc(Cl)nn1
melting point / °C: 132

compound: COc1ccc(Cn2c(C(C)C)c(C(=O)c3cccnc3)c3ccccc32)cc1
melting point / °C: 190

* * *

measurement_type: melting point (°C)

1: CCn1c(=O)c2ccccc2n2cnc(-c3nc(COC)no3)c12
2: CC(C)(C)OC(=O)CNc1ccccc1F
Task: // which entry reports the smaller melting point, 1 or 2 ? Could you answer with the label of the item you picked?
Output: 2

* * *

The molecules listed here are annotated with their melting point.

molecule: CNc1cccc(NC(=O)CO)c1C#N
melting point: 160 to 162 °C

Task: Given the entry `CCCOC(=O)Oc1ccc(-c2ccc(C#N)cc2)cc1` , report its measured melting point.
Output: 70.2 to 70.9 °C

Task: Given the entry CCC1=NC2(O)c3cc(-c4ccc(C(F)(F)F)cc4)ccc3CC2S1 (stereo not drawn) , report its measured melting point.
Output: 145 °C

* * *

The compounds listed here are annotated with their melting point.

// below: answered compounds
compound: O=C1c2c(Cl)cccc2-n2cnc(-c3nnc(-c4ccccc4)o3)c2[C@@H]2CCCN12
melting point: 221 to 222 °C

compound: CNC(=O)N(C)c1nc2c(s1)C(=O)CC(C)(C)C2
melting point: 174 to 175 °C

compound: CSc1ccc(-c2c(NN)nc(Cl)nc2-c2ccccc2)cc1
melting point: 272 to 274 °C

Task: Given the entry `CCOC(=O)c1cc(-n2c(=O)[nH]c3c(c2=O)CCC3)ccc1[N+](=O)[O-]` , report its measured melting point.
Output: 205 to 208 °C

Task: Given the entry `CCCCCCn1c(C)cc(C)c(C(=O)O)c1=O` , report its measured melting point.
Output: 79 to 82.5 °C

Task: Given the entry `CCOC(=O)c1cnc2cc(I)ccc2n1` , report its measured melting point.
Output: 160 to 162 °C

Task: Given the entry `O=C(NCc1cccnc1)c1ccc2n1Cc1ccccc1N(C(=O)c1ccc(-c3ccccc3Cc3nnn[nH]3)cc1)C2` , report its measured melting point.
Output: 164 to 167 °C

Task: Given the entry `COc1csc2ccc(C(=O)O)c(Cl)c12` , report its measured melting point.
Output: 185 to 192 °C

* * *

The compounds listed here are annotated with their melting point.

compound: CCCCCS(=O)(=O)NC(=O)CCc1cc(C(C)(C)C)nn1Cc1ccc(C(F)(F)F)cc1Cl
melting point: 136 to 137 °C
//
compound: CCCc1c(O)ccc2oc(Cc3ccc(OC)cc3)c(C)c12
melting point: 91 to 93 °C
//
compound: COc1ccc(S(=O)(=O)Nc2ccccc2Nc2ccccc2)cc1
melting point: 140 to 142 °C
//
compound: CN1CCC(Oc2ccc3ccc(N)nc3n2)CC1
melting point: 174 °C
//
compound: CCCN(Cc1ccc(-c2ccccc2-c2nnnn2C(c2ccccc2)(c2ccccc2)c2ccccc2)cc1)c1ncccc1C(=O)OCC
melting point: 129 to 131 °C

Task: Given the entry COc1cc(C(=O)NS(=O)(=O)c2ccccc2C)ccc1Cc1cn(C)c2ccc(CC(C)NC(=O)N(C)C)cc12 (stereo unspecified) , report its measured melting point.
Output: 125 to 135 °C

Task: Given the entry `Cc1c(CCO)c2cc(OCc3csc(-c4ccccc4)n3)ccc2n1Cc1ccccc1` , report its measured melting point.
Output: 114 to 116 °C

Task: Given the entry `CC(C)(C)c1ccc(OP(Oc2ccc(C(C)(C)C)cc2C(C)(C)C)Oc2ccc(C(C)(C)C)cc2C(C)(C)C)c(C(C)(C)C)c1` , report its measured melting point.
Output: 181 to 186 °C

* * *

The molecules listed here are annotated with their melting point.

// below: answered molecules
molecule: COC(=O)Cn1cccc(O)c1=O
recorded_measurement: 141 to 142 °C

molecule: O=CC1=CCC(C=CC(=O)O)C=C1 (stereo not drawn)
recorded_measurement: 134 to 138 °C

molecule: COc1cccc(C(CC(=O)O)SC)c1 (stereo not drawn)
recorded_measurement: 61 to 63 °C

molecule: CCCCc1n[nH]c(C(=O)O)c1Cc1ccc(-c2ccccc2-c2nc(=O)o[nH]2)cc1
recorded_measurement: 213 to 214 °C

molecule: CS(=O)(=O)c1ccc(C(=O)c2cc(-c3ccncc3)c(N3CCOCC3)s2)cc1
recorded_measurement: 128 °C

molecule: Cc1cc(NCc2ccccc2)c([N+](=O)[O-])c(=O)[nH]1
recorded_measurement: 246 to 247 °C

molecule: NC(=O)N1C(=O)C(C(=O)c2ccco2)c2ccc(F)cc21 (stereo not drawn)
recorded_measurement: 231 to 235 °C

molecule: CNC(=O)c1cc2[nH]c(C)nc2c2c1CCC1(Cc3ccccc3C1)N2
recorded_measurement: 240 to 241 °C

Task: Given the entry CCN(C)C(=O)C(Cc1ccc(C#N)cc1)NC(=O)C(Cc1ccc(OC)cc1)S(=O)(=O)Nc1ccc(Cl)c(Cl)c1 (stereo not drawn) , report its measured melting point.
Output: 192 °C

Task: Given the entry O=C(O)CCCCC(O)CCCl (single isomer, unassigned; (-)) , report its measured melting point.
Output: 29 to 30 °C

* * *

The compounds listed here are annotated with their melting point.

compound: CN(CCCNC(=O)NCCCOc1cccc(CN2CCCCC2)c1)CCC(c1ccc(F)cc1)c1ccccn1 (stereo not given)
melting point: 65 to 67 °C

compound: Cc1cc(C)nc(N(C#N)c2ccccc2)n1
melting point: 153 to 154 °C

compound: CCNC1c2cc(S(N)(=O)=O)oc2SCC1(C)C (stereo not given)
melting point: 147 °C

Task: Given the entry `O=C1c2c(Br)cccc2S(=O)(=O)N1CSc1ccccc1` , report its measured melting point.
Output: 174 to 178 °C

Task: Given the entry `N#CCNCCNCC#N` , report its measured melting point.
Output: 41 to 42 °C

Task: Given the entry `O=C(NCCCN1CCN(Cc2ccc(Cl)cc2)CC1)NC1CCCCC1` , report its measured melting point.
Output: 109 to 112 °C

Task: Given the entry CC(=O)Nc1ccc(C=CC2=NNC(=O)CC2C)cc1 (stereo not given) , report its measured melting point.
Output: 206 to 207 °C

Task: Given the entry `O=C(/C=C/c1cccc(S(=O)(=O)N2CCN(c3cccc([N+](=O)[O-])c3)CC2)c1)NO` , report its measured melting point.
Output: 162 °C

* * *

The compounds listed here are annotated with their melting point.

// below: answered compounds
compound: Cc1ccccc1COC(=O)NC(CO)Cc1ccc(O)cc1 (centres undefined)
recorded_measurement: 78 to 81 °C

compound: COc1cccc(CCOc2cccc(-c3cccc(C(=O)NCCNC(=O)OC(C)(C)C)c3)n2)c1
recorded_measurement: 128 to 129 °C

compound: COc1ccc(Cn2nc(C3CCN(CCc4c(C)nc5n(c4=O)CCS5)CC3)c3ccc(F)cc32)cc1
recorded_measurement: 146 °C

Task: Given the entry `CC(C)(C)c1cc(C(=O)c2ccc(C(=O)O)s2)cc(C(C)(C)C)c1O` , report its measured melting point.
Output: 228 to 230 °C

Task: Given the entry `C#CCOC(=O)c1ncn2c1CN(C)C(=O)c1cc(F)ccc1-2` , report its measured melting point.
Output: 220 to 222 °C

Task: Given the entry `Cc1nc(N2CCOCC2)nc(C)c1-c1cccc2c1OC[C@H]2Nc1ccc2c(c1)OC[C@H]2CC(=O)O` , report its measured melting point.
Output: 168 °C

Task: Given the entry CC(C)(COc1ccc(Cl)cc1)C(=O)C(Oc1ccc(Cl)cc1)n1ccnc1 (centres undefined) , report its measured melting point.
Output: 214 to 217 °C

Task: Given the entry `O=c1c(CCc2ccncc2)cc2cccnc2n1-c1cccc([N+](=O)[O-])c1` , report its measured melting point.
Output: 213 to 214 °C

Task: Given the entry CCCC(C)n1sc2ccccc2c1=O (centres undefined) , report its measured melting point.
Output: 52 to 54 °C

* * *

The compounds listed here are annotated with their melting point.

// below: answered compounds
compound: Cc1ccc2c(c1)C(C(=O)O)c1ccccc1CO2 (stereo not given)
melting point: 183 to 184 °C

compound: COP(=O)(COC1C=CC(n2cnc3c(N)ncnc32)O1)OC (stereo not given)
melting point: 146 to 149 °C

compound: CCOC(=O)c1c(C)nc2sc3c(c2c1OS(=O)(=O)C(F)(F)F)CCC1(C3)OCCO1
melting point: 133 to 134 °C

compound: CCCCCc1ccc(OCC(O)CC#CCCCC(=O)O)cc1 (stereo not given)
melting point: 54 to 57 °C

compound: O=C(O)c1c(O)c(-c2ccccc2)nc2ccccc12
melting point: 206 °C

Task: Given the entry `CN1CCN(CC/C=C/c2cc3c(Nc4ccc5[nH]ccc5c4)c(C#N)cnc3s2)CC1` , report its measured melting point.
Output: 220 °C

Task: Given the entry `COCCOCONC(=O)c1nc(-c2ccc(Cl)c(OC)c2F)cc(N)c1Cl` , report its measured melting point.
Output: 126 to 128 °C

Task: Given the entry `NC(=O)c1cn(CCBr)nc1[N+](=O)[O-]` , report its measured melting point.
Output: 135 to 137 °C

Task: Given the entry `COc1c(C)c(C(=O)c2ccc([N+](=O)[O-])cc2)n2ccccc12` , report its measured melting point.
Output: 151 °C

Task: Given the entry `Cc1ccc(-c2cn(C)cc(-c3ccccc3C)c2=O)cc1` , report its measured melting point.
Output: 151 to 154 °C

This collection of values is drawn from a melting point compilation (Tetko et al.; mined from patent text by program, amines drawn as free bases though some values may be those of a salt).
